test: IC50 with and without incubation (enzyme not given); type: biochemical; conditions: no incubation; read-out: IC50 No Incubations
// values below are reported pIC50
Remember, pIC50 is on a log scale: it is -log10 of the molar concentration.

Sample answers from the record:
{"Compound": "CCCCCC(NC(=O)[C@@H]1CCCN1C(=O)[C@H](N)C(c1ccccc1)c1ccccc1)P(=O)(Oc1ccccc1)Oc1ccccc1 (stereo partly drawn) [Compound 23, D-Dpa-Pro-Pgl^P(OPh)2]", "pIC50": 6.73}
{"Compound": "COCCCC(NC(=O)[C@@H]1CCCN1C(=O)[C@H](N)C(c1ccccc1)c1ccccc1)P(=O)(Oc1ccccc1)Oc1ccccc1 (stereo partly drawn) [Compound 32, H-D-Dpa-Pro-Mpg^P(OPh)2]", "pIC50": 5.83}

The compound CCCCCC(NC(=O)[C@@H]1CCCN1C(=O)[C@H](N)C(c1ccccc1)c1ccccc1)P(=O)(O)O (stereo partly drawn) [Compound 18, D-Dpa-Pro-Pgl^P(OH)2] showed pIC50 equal to 3.83

---

assay: Peripheral blood pressure after intravenous dose; assay type: in vivo, New Zealand white rabbits; details: 4 mg/kg iv. dose
// values below are reported BLOOD PRESSURE Δ% of NORM

Sample answers from the record:
{"Compound": "CC1(C)C2CC3OB(C(CCCSC(=N)N)NC(=O)C4CCCN4C(=O)C(Cc4ccccc4)NC(=O)OCc4ccccc4)OC3(C)C1C2 (stereo not shown)", "BLOOD PRESSURE Δ% of NORM": "100% Δ% of NORM"}
{"Compound": "CC(C)(C)OC(=O)NC(Cc1ccccc1)C(=O)N1CCCC1C(=O)NC(C=O)Cc1cnc[nH]1 (stereo not shown)", "BLOOD PRESSURE Δ% of NORM": "0 Δ% of NORM"}
{"Compound": "CCC(C)CC(NC(=O)[C@@H]1CCCN1C(=O)[C@@H](Cc1ccccc1)NC(=O)OCc1ccccc1)B1OC2CC3CC(C3(C)C)C2(C)O1 (stereo partly shown)", "BLOOD PRESSURE Δ% of NORM": "0 Δ% of NORM"}

The compound CC1(C)OB(C(Cc2ccccc2)NC(=O)C2CCCN2C(=O)C(Cc2ccccc2)NC(=O)OCc2ccccc2)OC1(C)C (stereo not shown) showed BLOOD PRESSURE Δ% of NORM equal to 21% Δ% of NORM

---

// values below are reported pIC50
biological target: Urokinase (Homo sapiens, UniProt P00749); assay: IC50 against urokinase; type: biochemical; details: with incubation (second value of cell); read-out: Urokinase inc
pIC50: −log10 of the molar value.

{"Compound": "COCCCC(NC(=O)[C@@H]1CCCN1C(=O)[C@H](N)C(c1ccccc1)c1ccccc1)P(=O)(Oc1ccccc1)Oc1ccccc1 (some centres unmarked)", "pIC50": "< 4.73"}

// below: pIC50 requested for another compound
The compound COCCCC(NC(=O)[C@@H]1CCCN1C(=O)[C@H](N)Cc1ccccc1)P(=O)(Oc1ccccc1)Oc1ccccc1 (some centres unmarked) showed pIC50 equal to < 4.68

---

// values below are reported IC50
target: Xa (Homo sapiens); construct: Plasmin; Xa; Urokinase; experiment: IC50 against Xa; assay type: biochemical; details: single value given, incubation not given; read-out: Xa no inc/inc
Sequence (P00742 41-179 limits assumed): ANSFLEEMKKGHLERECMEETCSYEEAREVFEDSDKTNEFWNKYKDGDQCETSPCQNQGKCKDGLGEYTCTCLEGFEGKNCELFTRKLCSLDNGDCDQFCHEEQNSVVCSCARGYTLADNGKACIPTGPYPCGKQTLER
Sequence (P00742 235-488 limits assumed): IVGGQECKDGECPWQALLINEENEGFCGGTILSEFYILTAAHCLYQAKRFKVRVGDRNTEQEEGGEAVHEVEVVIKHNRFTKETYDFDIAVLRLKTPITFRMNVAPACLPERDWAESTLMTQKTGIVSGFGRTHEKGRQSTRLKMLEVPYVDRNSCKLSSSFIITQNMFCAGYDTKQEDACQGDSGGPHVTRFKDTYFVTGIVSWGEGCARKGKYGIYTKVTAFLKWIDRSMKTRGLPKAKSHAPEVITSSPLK
Report only the number, with the unit µM understood.

For CC1(C)OB(C(Cc2ccccc2)NC(=O)C2CCCN2C(=O)C(Cc2ccccc2)NC(=O)OCc2ccccc2)OC1(C)C [Compound 41, Z-D-Phe-Pro-BoroPhe-OPinac] on Xa (Homo sapiens), measured IC50 was 7.94

For N=C(N)NCCCC(NC(=O)C1CCCN1C(=O)C(N)C(c1ccccc1)c1ccccc1)C(=O)CCC(=O)N1CCCCC1.O=C(O)C(F)(F)F.O=C(O)C(F)(F)F [Compound 6, D-Dpa-Pro-Arg--k--Gly-Pip] on Xa (Homo sapiens), measured IC50 was 149

For COCCCC(NC(=O)C1CCCN1C(=O)C(Cc1ccccc1)NC(=O)OCc1ccccc1)B1OC2CC3CC(C3(C)C)C2(C)O1 [Compound 50, Z-D-Phe-Pro-BoroMpg-OPin] on Xa (Homo sapiens), measured IC50 was 1.72

For CCC(C)CC(NC(=O)[C@@H]1CCCN1C(=O)[C@@H](Cc1ccccc1)NC(=O)OCc1ccccc1)B1OC2CC3CC(C3(C)C)C2(C)O1 (stereo partly drawn) [Compound 22, Z-D-Phe-Pro-BoroMbg-OPin] on Xa (Homo sapiens), measured IC50 was 3.86

For CC1(C)C2CC3OB(C(CCCSC(=N)N)NC(=O)C4CCCN4C(=O)C(Cc4ccccc4)NC(=O)OCc4ccccc4)OC3(C)C1C2 [Compound 25, Z-D-Phe-Pro-BoroIrg-OPin] on Xa (Homo sapiens), measured IC50 was 0.0141

Value source: patent US6387881B1
